Test system: ANGIOTENSIN II VASOPRESSOR RESPONSE
Assay: AII Challenge: blockade of angiotensin II vasopressor response in conscious SHR
Assay type: in vivo, rat (Conscious Male Okamoto-Aoki SHR)
Details: SHR n=2; 3 mg/kg i.v.; AII 0.05 mcg/kg IV; 240 min post dose
value_type: Average Change (systolic blood pressure response to AII) (mmHg)

CCCCc1nc2ccc(C(C)(O)C3CCN(C)C3=O)cc2c(=O)n1Cc1ccc(-c2ccccc2-c2nn[nH]n2)cc1 (single isomer, unassigned; isomer 1) [Example 47]; 25
CCCCc1nc2ccc(C(O)C3CCCS3(=O)=O)cc2c(=O)n1Cc1ccc(-c2ccccc2-c2nn[nH]n2)cc1 (single isomer, unassigned; isomer 2) [Example 16]; 27.5
CCCCc1nc2ccc(C(O)C3CCN(C)C3=O)cc2c(=O)n1Cc1ccc(-c2ccccc2-c2nn[nH]n2)cc1 (single isomer, unassigned; isomer 2) [Example 33]; 17.5
CCCCc1nc2ccc(C(O)C3CCN(C)C3=O)cc2c(=O)n1Cc1ccc(-c2ccccc2-c2nn[nH]n2)cc1 (single isomer, unassigned; isomer 1) [Example 32]; 17.5
CCCCc1nc2ccc(C(C)(O)C3CCN(C)C3=O)cc2c(=O)n1Cc1ccc(-c2ccccc2-c2nn[nH]n2)cc1 (single isomer, unassigned; isomer 2) [Example 48]; 14

###

System: ANGIOTENSIN II VASOPRESSOR RESPONSE
Test: AII Challenge: blockade of angiotensin II vasopressor response in conscious SHR
Format: in vivo, rat (Conscious Male Okamoto-Aoki SHR)
Conditions: SHR n=2; 3 mg/kg i.v.; AII 0.1 mcg/kg IV; 180 min post dose
Quick reference: Average Change (systolic blood pressure response to AII) of the listed items.
value_type: Average Change (systolic blood pressure response to AII)

CCCCc1nc2ccc(C(O)C3CCCS3(=O)=O)cc2c(=O)n1Cc1ccc(-c2ccccc2-c2nn[nH]n2)cc1 (single isomer, unassigned; isomer 2) [Example 16]; 30 mmHg
CCCCc1nc2ccc(C(O)C3CCCS3(=O)=O)cc2c(=O)n1Cc1ccc(-c2ccccc2-c2nn[nH]n2)cc1 (single isomer, unassigned; isomer 1) [Example 15]; 25 mmHg
CCCCc1nc2ccc(C(C)(O)C3CCCN(C)C3=O)cc2c(=O)n1Cc1ccc(-c2ccccc2-c2nn[nH]n2)cc1 (single isomer, unassigned; isomer 2) [Example 53]; 30 mmHg
CCCCc1nc2ccc(C(C)(O)C3CCN(C)C3=O)cc2c(=O)n1Cc1ccc(-c2ccccc2-c2nn[nH]n2)cc1 (single isomer, unassigned; isomer 1) [Example 47]; 17.5 mmHg
CCCCc1nc2ccc(C(O)C3CCN(C)C3=O)cc2c(=O)n1Cc1ccc(-c2ccccc2-c2nn[nH]n2)cc1 (single isomer, unassigned; isomer 2) [Example 33]; 25 mmHg

###

Test system: ANGIOTENSIN II VASOPRESSOR RESPONSE
Assay: AII Challenge: blockade of angiotensin II vasopressor response in conscious SHR
Type: in vivo, rat (Conscious Male Okamoto-Aoki SHR)
Details: SHR n=2; 3 mg/kg p.o.; AII 0.1 mcg/kg IV; 180 min post dose
Quick reference: % Inhibition of AII vasopressor response of the listed items.
value_type: % Inhibition of AII vasopressor response

CCCCc1nc2ccc(C(OC)C3CCCO3)cc2c(=O)n1Cc1ccc(-c2ccccc2-c2nn[nH]n2)cc1 (single isomer, unassigned) [Example 24]; 29%
CCCCc1nc2ccc(C(O)C3CCCN(C)C3=O)cc2c(=O)n1Cc1ccc(-c2ccccc2-c2nn[nH]n2)cc1 (single isomer, unassigned; isomer 2) [Example 38]; 28%
CCCCc1nc2ccc(C(OC)C3CCCO3)cc2c(=O)n1Cc1ccc(-c2ccccc2-c2nn[nH]n2)cc1 (single isomer, unassigned; isomer 1) [Example 23]; 9%
CCCCc1nc2ccc(C(O)C3CCCN(C)C3=O)cc2c(=O)n1Cc1ccc(-c2ccccc2-c2nn[nH]n2)cc1 (single isomer, unassigned; isomer 1) [Example 37]; 22%
CCCCc1nc2ccc(C(OC)C3CCCN(C)C3=O)cc2c(=O)n1Cc1ccc(-c2ccccc2-c2nn[nH]n2)cc1 (single isomer, unassigned; isomer 2) [Example 43]; 6%

###

Quick reference: Average Change (systolic blood pressure response to AII) of the listed items.
Tested on: ANGIOTENSIN II VASOPRESSOR RESPONSE
Experiment: AII Challenge: blockade of angiotensin II vasopressor response in conscious SHR
Assay type: in vivo, rat (Conscious Male Okamoto-Aoki SHR)
Conditions: SHR n=2; 3 mg/kg i.v.; AII 0.05 mcg/kg IV; 60 min post dose
value_type: Average Change (systolic blood pressure response to AII) (mmHg)

CCCCc1nc2ccc(C(O)C3CCCN(C)C3=O)cc2c(=O)n1Cc1ccc(-c2ccccc2-c2nn[nH]n2)cc1 (single isomer, unassigned; isomer 1); 0
CCCCc1nc2ccc(C(O)C3CCN(C)C3=O)cc2c(=O)n1Cc1ccc(-c2ccccc2-c2nn[nH]n2)cc1 (single isomer, unassigned; isomer 2) [Example 33]; 0
CCCCc1nc2ccc(C(O)C3CCN(C)C3=O)cc2c(=O)n1Cc1ccc(-c2ccccc2-c2nn[nH]n2)cc1 (single isomer, unassigned; isomer 1) [Example 32]; 2.5
CCCCc1nc2ccc(C(O)C3CCCS3(=O)=O)cc2c(=O)n1Cc1ccc(-c2ccccc2-c2nn[nH]n2)cc1 (single isomer, unassigned; isomer 2) [Example 16]; 31.5
CCCCc1nc2ccc(C(C)(O)C3CCN(C)C3=O)cc2c(=O)n1Cc1ccc(-c2ccccc2-c2nn[nH]n2)cc1 (single isomer, unassigned; isomer 2) [Example 48]; 5
CCCCc1nc2ccc(C(OC)C3CCCO3)cc2c(=O)n1Cc1ccc(-c2ccccc2-c2nn[nH]n2)cc1 (single isomer, unassigned; isomer 1) [Example 23]; 2.5
CCCCc1nc2ccc(C(OC)C3CCCO3)cc2c(=O)n1Cc1ccc(-c2ccccc2-c2nn[nH]n2)cc1 (single isomer, unassigned) [Example 24]; 2.5

###

pIC50 data for Angiotensin II Receptor (Bos taurus, UniProt P25104) follow.
pIC50: −log10 of the molar value.
value_type: pIC50

CCCCc1nc2ccc(C(OC)C3CCCO3)cc2c(=O)n1Cc1ccc(-c2ccccc2-c2nn[nH]n2)cc1 (single isomer, unassigned) [Example 24]; 7.42
CCCCc1nc2ccc(C(O)C3CCCO3)cc2c(=O)n1Cc1ccc(-c2ccccc2-c2nn[nH]n2)cc1 (centres unmarked) [Example 28]; 6.89
CCCCc1nc2ccc(C(C)(O)C3CCCN(C)C3=O)cc2c(=O)n1Cc1ccc(-c2ccccc2-c2nn[nH]n2)cc1 (single isomer, unassigned; isomer 2) [Example 53]; 7.27
CCCCc1nc2ccc(C(O)C3CCN(C)C3=O)cc2c(=O)n1Cc1ccc(-c2ccccc2-c2nn[nH]n2)cc1 (single isomer, unassigned; isomer 2) [Example 33]; 7.54
CCCCc1nc2ccc(C(OC)C3CCCN(C)C3=O)cc2c(=O)n1Cc1ccc(-c2ccccc2-c2nn[nH]n2)cc1 (single isomer, unassigned; isomer 1) [Example 42]; 7.04

###

System: ANGIOTENSIN II VASOPRESSOR RESPONSE
Experiment: AII Challenge: blockade of angiotensin II vasopressor response in conscious SHR
Assay type: in vivo, rat (Conscious Male Okamoto-Aoki SHR)
Settings: SHR n=2; 3 mg/kg i.v.; AII 0.05 mcg/kg IV; 30 min post dose
value_type: Average Change (systolic blood pressure response to AII) (mmHg)

CCCCc1nc2ccc(C(C)(O)C3CCN(C)C3=O)cc2c(=O)n1Cc1ccc(-c2ccccc2-c2nn[nH]n2)cc1 (single isomer, unassigned; isomer 2) [Example 48]; 3.5
CCCCc1nc2ccc(C(OC)C3CCCO3)cc2c(=O)n1Cc1ccc(-c2ccccc2-c2nn[nH]n2)cc1 (single isomer, unassigned) [Example 24]; 0
CCCCc1nc2ccc(C(O)C3CCCS3(=O)=O)cc2c(=O)n1Cc1ccc(-c2ccccc2-c2nn[nH]n2)cc1 (single isomer, unassigned; isomer 1) [Example 15]; 5
CCCCc1nc2ccc(C(O)C3CCN(C)C3=O)cc2c(=O)n1Cc1ccc(-c2ccccc2-c2nn[nH]n2)cc1 (single isomer, unassigned; isomer 1) [Example 32]; 0
CCCCc1nc2ccc(C(O)C3CCCN(C)C3=O)cc2c(=O)n1Cc1ccc(-c2ccccc2-c2nn[nH]n2)cc1 (single isomer, unassigned; isomer 1); 0
CCCCc1nc2ccc(C(C)(O)C3CCCN(C)C3=O)cc2c(=O)n1Cc1ccc(-c2ccccc2-c2nn[nH]n2)cc1 (single isomer, unassigned; isomer 2); 5
CCCCc1nc2ccc(C(C)(O)C3CCN(C)C3=O)cc2c(=O)n1Cc1ccc(-c2ccccc2-c2nn[nH]n2)cc1 (single isomer, unassigned; isomer 1) [Example 47]; 10
CCCCc1nc2ccc(C(OC)C3CCCO3)cc2c(=O)n1Cc1ccc(-c2ccccc2-c2nn[nH]n2)cc1 (single isomer, unassigned; isomer 1) [Example 23]; 1
CCCCc1nc2ccc(C(O)C3CCN(C)C3=O)cc2c(=O)n1Cc1ccc(-c2ccccc2-c2nn[nH]n2)cc1 (single isomer, unassigned; isomer 2) [Example 33]; 0
CCCCc1nc2ccc(C(O)C3CCCS3(=O)=O)cc2c(=O)n1Cc1ccc(-c2ccccc2-c2nn[nH]n2)cc1 (single isomer, unassigned; isomer 2) [Example 16]; 12.5
